- Measurement Target: Alpha-1B adrenergic receptor (Homo sapiens, UniProt P35368)
- Sequence (P35368 whole entry): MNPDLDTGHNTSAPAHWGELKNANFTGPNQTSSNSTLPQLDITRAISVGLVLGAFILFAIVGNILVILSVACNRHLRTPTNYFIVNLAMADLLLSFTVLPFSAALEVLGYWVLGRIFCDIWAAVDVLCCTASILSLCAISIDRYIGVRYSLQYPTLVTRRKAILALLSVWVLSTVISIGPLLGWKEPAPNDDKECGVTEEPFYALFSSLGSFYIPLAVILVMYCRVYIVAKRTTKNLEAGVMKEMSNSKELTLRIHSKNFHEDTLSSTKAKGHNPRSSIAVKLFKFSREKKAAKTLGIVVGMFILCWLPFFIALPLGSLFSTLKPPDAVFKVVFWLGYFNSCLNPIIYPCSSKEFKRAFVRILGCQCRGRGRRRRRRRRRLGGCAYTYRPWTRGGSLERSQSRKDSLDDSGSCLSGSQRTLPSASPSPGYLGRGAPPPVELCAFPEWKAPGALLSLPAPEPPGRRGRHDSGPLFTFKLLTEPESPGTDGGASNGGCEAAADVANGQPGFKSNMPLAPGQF
pKi: −log10 of the molar value.

- Compound: "CCCN(CCC)C1CCc2cccc(O)c2C1 (stereo unspecified) [8-OH-DPAT]"
  Measurement Target: "Alpha-1B adrenergic receptor (Homo sapiens, UniProt P35368)"
  pKi: 5.22
- Compound: "COc1ccc(Cl)cc1N1CCN(CCNc2c(C(C)=O)c(-c3ccccc3)nn(C)c2=O)CC1"
  Measurement Target: "Alpha-1B adrenergic receptor (Homo sapiens, UniProt P35368)"
  pKi: 8.40
- Compound: "COc1ccc(Cl)cc1N1CCN(CCCNc2cc(-c3ccccc3)nn(C)c2=O)CC1"
  Measurement Target: "Alpha-1B adrenergic receptor (Homo sapiens, UniProt P35368)"
  pKi: 8.70
- Compound: "COc1ccccc1N1CCN(CCNc2c(C(C)=O)c(C)nn(C)c2=O)CC1"
  Measurement Target: "Alpha-1B adrenergic receptor (Homo sapiens, UniProt P35368)"
  pKi: 7.30
- Compound: "COc1ccc(Cl)cc1N1CCN(CCCCNc2c(C(C)=O)c(C)nn(C)c2=O)CC1"
  Measurement Target: "Alpha-1B adrenergic receptor (Homo sapiens, UniProt P35368)"
  pKi: 7.31
- Compound: "COc1ccccc1N1CCN(CCNc2cc(C)nn(C)c2=O)CC1"
  Measurement Target: "Alpha-1B adrenergic receptor (Homo sapiens, UniProt P35368)"
  pKi: 7.48
- Compound: "COc1ccc(Cl)cc1N1CCN(CCCNc2c(C(C)=O)c(C)nn(C)c2=O)CC1"
  Measurement Target: "Alpha-1B adrenergic receptor (Homo sapiens, UniProt P35368)"
  pKi: 8.09
- Compound: "COc1ccccc1N1CCN(CCNc2cc(-c3ccccc3)nn(C)c2=O)CC1"
  Measurement Target: "Alpha-1B adrenergic receptor (Homo sapiens, UniProt P35368)"
  pKi: 8.70
- Compound: "COc1ccccc1N1CCN(c2c(C(C)=O)c(-c3ccccc3)nn(C)c2=O)CC1"
  Measurement Target: "Alpha-1B adrenergic receptor (Homo sapiens, UniProt P35368)"
  pKi: 6.59
- Compound: "COc1ccccc1N1CCN(CCCNc2c(C(C)=O)c(-c3ccccc3)nn(C)c2=O)CC1"
  Measurement Target: "Alpha-1B adrenergic receptor (Homo sapiens, UniProt P35368)"
  pKi: 7.69
- Compound: "COc1ccccc1N1CCN(CCNc2c(C(=O)C(C)C)c(-c3ccccc3)nn(C)c2=O)CC1"
  Measurement Target: "Alpha-1B adrenergic receptor (Homo sapiens, UniProt P35368)"
  pKi: 9.19

###

- Measurement Target: Alpha-1D adrenergic receptor (Homo sapiens)
- Sequence (P25100 whole entry): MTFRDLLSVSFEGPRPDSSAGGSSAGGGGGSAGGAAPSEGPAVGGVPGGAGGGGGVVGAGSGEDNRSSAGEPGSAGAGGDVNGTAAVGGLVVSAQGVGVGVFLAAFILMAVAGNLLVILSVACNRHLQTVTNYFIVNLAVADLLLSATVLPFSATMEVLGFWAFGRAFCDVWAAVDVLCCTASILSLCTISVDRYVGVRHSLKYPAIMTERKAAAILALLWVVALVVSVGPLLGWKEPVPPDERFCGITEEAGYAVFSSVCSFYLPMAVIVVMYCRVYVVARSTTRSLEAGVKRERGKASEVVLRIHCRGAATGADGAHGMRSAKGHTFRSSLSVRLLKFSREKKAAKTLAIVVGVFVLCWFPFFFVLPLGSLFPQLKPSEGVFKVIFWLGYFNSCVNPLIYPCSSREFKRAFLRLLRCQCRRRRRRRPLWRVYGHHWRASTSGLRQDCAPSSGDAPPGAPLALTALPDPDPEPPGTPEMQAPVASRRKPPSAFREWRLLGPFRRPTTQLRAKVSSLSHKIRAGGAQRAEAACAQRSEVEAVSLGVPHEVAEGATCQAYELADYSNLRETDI
Readout Label: Ki (nM)

- Given Smiles: "CCC(=O)c1c(-c2ccccc2)nn(C)c(=O)c1NCCN1CCN(c2ccccc2OC)CC1"
  Relation Sign: "="
  Numeric Result: 0.25
- Given Smiles: "COc1ccccc1N1CCN(CCCNc2c(C(C)=O)c(-c3ccccc3)nn(C)c2=O)CC1"
  Relation Sign: "="
  Numeric Result: 4.32
- Given Smiles: "COc1ccccc1N1CCN(CCNc2cc(C)nn(C)c2=O)CC1"
  Relation Sign: "="
  Numeric Result: 17.7
- Given Smiles: "COc1ccccc1N1CCN(CCCNc2c(C(C)=O)c(C)nn(C)c2=O)CC1"
  Relation Sign: "="
  Numeric Result: 34.5
- Given Smiles: "CC(=O)c1c(-c2ccccc2)nn(C)c(=O)c1NCCN1CCN(c2ccccc2Cl)CC1"
  Relation Sign: "="
  Numeric Result: 0.25
- Given Smiles: "COc1ccc(Cl)cc1N1CCN(CCNc2c(C(C)=O)c(-c3ccccc3)nn(C)c2=O)CC1"
  Relation Sign: "="
  Numeric Result: 0.41
- Given Smiles: "COc1ccc(Cl)cc1N1CCN(CCCNc2c(C(C)=O)c(C)nn(C)c2=O)CC1"
  Relation Sign: "="
  Numeric Result: 5.34
- Given Smiles: "COc1ccc(Cl)cc1N1CCN(CCCCNc2c(C(C)=O)c(C)nn(C)c2=O)CC1"
  Relation Sign: "="
  Numeric Result: 5.96
- Given Smiles: "COc1ccccc1N1CCN(c2c(C(C)=O)c(-c3ccccc3)nn(C)c2=O)CC1"
  Relation Sign: ">"
  Numeric Result: 10000
- Given Smiles: "COc1ccc(Cl)cc1N1CCN(CCCNc2cc(-c3ccccc3)nn(C)c2=O)CC1"
  Relation Sign: "="
  Numeric Result: 2.92
- Given Smiles: "COc1ccccc1N1CCN(CCNc2c(C(C)=O)c(C)nn(C)c2=O)CC1"
  Relation Sign: "="
  Numeric Result: 3.2

###

Below is a list of entries, each paired with its recorded pK1b value.
- Measurement Target: Alpha-1B adrenergic receptor (Homo sapiens)
- Protocol: Experimental binding affinity for alpha-1B-adrenergic receptor

- Given Smiles: "CC(=O)c1c(-c2ccccc2)nn(C)c(=O)c1NCCN1CCN(c2ccccc2F)CC1"
  pK1b: 8.42
- Given Smiles: "CC(=O)c1c(-c2ccccc2)nn(C)c(=O)c1NCCN1CCN(c2ccccc2Cl)CC1"
  pK1b: 9.12
- Given Smiles: "COc1ccccc1N1CCN(CCCNc2cc(-c3ccccc3)nn(C)c2=O)CC1"
  pK1b: 8.26
- Given Smiles: "COc1ccccc1N1CCN(CCNc2c(C(C)=O)c(-c3ccccc3)nn(C)c2=O)CC1"
  pK1b: 8.48
- Given Smiles: "COc1ccc(Cl)cc1N1CCN(CCCCNc2c(C(C)=O)c(C)nn(C)c2=O)CC1"
  pK1b: 7.39
- Given Smiles: "COc1ccc(Cl)cc1N1CCN(CCCNc2c(C(C)=O)c(C)nn(C)c2=O)CC1"
  pK1b: 8.1
- Given Smiles: "COc1ccccc1N1CCN(CCCNc2c(C(C)=O)c(-c3ccccc3)nn(C)c2=O)CC1"
  pK1b: 7.69
- Given Smiles: "COc1ccc(Cl)cc1N1CCN(CCCNc2c(C(C)=O)c(-c3ccccc3)nn(C)c2=O)CC1"
  pK1b: 8.85

###

Below is a list of entries, each paired with its recorded pKi value.
- Measurement Target: 5-hydroxytryptamine receptor 1A (Homo sapiens, UniProt P08908)
- Sequence (P08908 whole entry): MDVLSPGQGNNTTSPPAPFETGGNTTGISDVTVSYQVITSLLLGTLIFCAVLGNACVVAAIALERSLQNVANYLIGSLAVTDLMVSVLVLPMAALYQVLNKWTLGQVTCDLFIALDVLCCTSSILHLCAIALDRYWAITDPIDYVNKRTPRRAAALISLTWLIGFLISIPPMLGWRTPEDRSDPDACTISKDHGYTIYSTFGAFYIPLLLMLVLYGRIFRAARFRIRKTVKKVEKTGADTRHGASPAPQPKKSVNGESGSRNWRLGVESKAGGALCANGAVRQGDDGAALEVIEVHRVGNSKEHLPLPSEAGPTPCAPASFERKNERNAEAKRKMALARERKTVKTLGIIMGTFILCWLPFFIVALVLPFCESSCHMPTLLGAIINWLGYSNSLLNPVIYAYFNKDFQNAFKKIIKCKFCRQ
pKi: −log10 of the molar value.
Readout Label: pKi

- Given Smiles: "COc1ccc(Cl)cc1N1CCN(CCCNc2c(C(C)=O)c(-c3ccccc3)nn(C)c2=O)CC1"
  Relation Sign: "="
  Numeric Result: 6.00
- Given Smiles: "COc1ccc(Cl)cc1N1CCN(CCCNc2cc(-c3ccccc3)nn(C)c2=O)CC1"
  Relation Sign: "<"
  Numeric Result: 6.00
- Given Smiles: "COc1ccccc1N1CCN(CCCNc2c(C(C)=O)c(-c3ccccc3)nn(C)c2=O)CC1"
  Relation Sign: "="
  Numeric Result: 6.87
- Given Smiles: "COc1ccc(Cl)cc1N1CCN(CCCCNc2c(C(C)=O)c(C)nn(C)c2=O)CC1"
  Relation Sign: "="
  Numeric Result: 8.86
- Given Smiles: "CC(=O)c1c(-c2ccccc2)nn(C)c(=O)c1NCCN1CCN(c2ccccc2F)CC1"
  Relation Sign: "="
  Numeric Result: 7.62
- Given Smiles: "COc1ccccc1N1CCN(CCNc2cc(C)nn(C)c2=O)CC1"
  Relation Sign: "="
  Numeric Result: 7.49
- Given Smiles: "CCC(=O)c1c(-c2ccccc2)nn(C)c(=O)c1NCCN1CCN(c2ccccc2OC)CC1"
  Relation Sign: "="
  Numeric Result: 8.39
- Given Smiles: "COc1ccccc1N1CCN(CCCNc2c(C(C)=O)c(C)nn(C)c2=O)CC1"
  Relation Sign: "="
  Numeric Result: 8.83
- Given Smiles: "COc1ccccc1N1CCN(CCNc2cc(-c3ccccc3)nn(C)c2=O)CC1"
  Relation Sign: "="
  Numeric Result: 7.85
- Given Smiles: "COc1ccccc1N1CCN(c2c(C(C)=O)c(-c3ccccc3)nn(C)c2=O)CC1"
  Relation Sign: "<"
  Numeric Result: 6.00

# credit: ChEMBL document CHEMBL1134534
